Listed here: items and their measured percentage of helical population (in parentheses).
assay: TFE titration followed by far-UV CD (disordered-helical two-state equilibrium); assay type: physicochemical; conditions: from ∆G^water assuming a two-state conformational equilibrium
quantity-kind: percentage of helical population (in parentheses) (%)

1) Ac-GWAEGLHARPASIFVRAATATG-NH2 [Wild-type] | 0.10
2) Ac-GWAEGLHARPASIAVRAATATG-NH2 [Peptide F22A] | 0.5
3) Ac-GWAEGLHARPASIFARAATATG-NH2 [Peptide V23A] | 0.01

----------
Listed here: items and their measured [Θ]^222 (value in parentheses).
assay: Far-UV CD, helicity from molar ellipticity at 222 nm; format: physicochemical; settings: 5 °C, 50 mM Tris pH 7.0
quantity-kind: [Θ]^222 (value in parentheses) (deg cm^2 dmol^−1)

1. Ac-GWAEGLHARPASAFVRAATATG-NH2 [Peptide I21A] | −681.95
2. Ac-GWAEGLHARAASAFARAATATG-NH2 [P18A/I21A/V23A] | −2698.61
3. Ac-GWAEGLHARAASIFVRAATATG-NH2 [Peptide P18A] | −1135.47
4. Ac-GWAEGLHARPASIAVRAATATG-NH2 [Peptide F22A] | −84.95
